Origin of the recorded values: the supplement of paper PMC10065799

- TARGET_OR_TEST_SYSTEM: FGFR3 (UniProt P22607)
- Sequence (P22607 whole entry, looked up): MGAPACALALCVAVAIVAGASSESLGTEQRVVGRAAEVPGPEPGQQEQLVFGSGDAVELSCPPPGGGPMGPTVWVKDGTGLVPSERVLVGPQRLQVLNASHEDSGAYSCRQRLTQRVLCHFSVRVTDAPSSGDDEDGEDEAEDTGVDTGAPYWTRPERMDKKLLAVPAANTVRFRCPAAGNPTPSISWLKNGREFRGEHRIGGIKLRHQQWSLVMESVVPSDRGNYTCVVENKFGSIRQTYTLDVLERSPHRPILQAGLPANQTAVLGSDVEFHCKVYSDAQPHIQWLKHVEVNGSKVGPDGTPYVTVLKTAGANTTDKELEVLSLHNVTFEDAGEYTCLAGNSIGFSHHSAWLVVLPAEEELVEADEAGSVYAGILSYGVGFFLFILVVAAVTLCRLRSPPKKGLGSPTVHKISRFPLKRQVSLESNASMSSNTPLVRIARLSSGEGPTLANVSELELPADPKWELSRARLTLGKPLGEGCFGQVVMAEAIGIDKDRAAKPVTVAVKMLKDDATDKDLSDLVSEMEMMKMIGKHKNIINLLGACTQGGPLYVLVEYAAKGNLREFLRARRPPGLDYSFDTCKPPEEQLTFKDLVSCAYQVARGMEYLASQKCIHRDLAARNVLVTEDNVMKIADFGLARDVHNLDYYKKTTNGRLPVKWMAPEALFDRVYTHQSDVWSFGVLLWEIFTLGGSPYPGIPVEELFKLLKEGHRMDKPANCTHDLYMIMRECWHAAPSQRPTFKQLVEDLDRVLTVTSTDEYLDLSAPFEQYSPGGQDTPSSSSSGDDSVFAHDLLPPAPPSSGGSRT
- PROTOCOL_NOTES: phosphorylation enrichment, bacterial display (enrichment ratio); higher = better substrate or ligand; peptides without Tyr show the background;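 also: 11-residue human phosphosite peptides and single-mutation variants displayed on the E. coli surface, counted by deep sequencing, each peptide's frequency after selection divided by its frequency in the unselected input library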;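 also: frequency after pTyr selection over input frequency; kinase dosed for 20-30% of maximal phosphorylation in three min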
Please use Met whenever phosphorylation enrichment is not below 0.7, and Not met whenever it is.

Dear colleague, could you confirm whether DVSKEYGHLLP [HRC_Y99] has phosphorylation enrichment at or above 0.7?
Met

Dear colleague, could you confirm whether LARHMYDKEYY [MET_Y1230_D1228H] has phosphorylation enrichment at or above 0.7?
Met

Dear colleague, could you confirm whether LPHVIYCRLWC [SMAD2_Y128_R133C] has phosphorylation enrichment at or above 0.7?
Not met

Dear colleague, could you confirm whether LWPIWYSCHRP [MRGPRX1_Y130_R131S] has phosphorylation enrichment at or above 0.7?
Met

Dear colleague, could you confirm whether YADGVYLALEE [DUOX2_Y70_Q71L] has phosphorylation enrichment at or above 0.7?
Met

Dear colleague, could you confirm whether KLQKFYRQNPD [EHHADH_Y683_YF] has phosphorylation enrichment at or above 0.7?
Not met
